Test: Cytotoxicity assay (CellTiter-Glo, 72 h), MESO-1
Assay type: cell-based
Conditions: human, MESO-1 malignant pleural mesothelioma cells, conc 9.53674e-5 uM; raw replicate data; read-out: MESO1 viability (%)
Method: Jurkat cells were cultured in RPMI1640 medium supplemented with 10% foetal bovine serum, penicillin (50 U/ml), streptomycin (50 μg/ml), and Glutamax. SKOV-3 cells were cultured in DMEM medium supplemented with 10% fetal bovine serum, penicillin (50 U/ml), and streptomycin (50 μg/ml). […] Cell viabilities were measured using a CellTiter-Glo luminescent cell viability assay and EnVision multilabel plate reader.
readout-kind: viability at 72 h, 9.53674e-05 uM (%)
Please state the figure in %; there is no need to write the unit.

CO[C@H]1C[C@@H]2CC[C@@H](C)[C@@](O)(O2)C(=O)C(=O)N2CCCC[C@H]2C(=O)O[C@H]([C@H](C)C[C@@H]2CC[C@@H](O)[C@H](OC)C2)CC(=O)[C@H](C)/C=C(\C)[C@@H](O)[C@@H](OC)C(=O)[C@H](C)C[C@H](C)/C=C/C=C/C=C/1C [Compound 1, rapamycin, reference compound] | 79
CO[C@@H]1C[C@H](C[C@@H](C)[C@@H]2CC(=O)[C@H](C)/C=C(\C)[C@@H](O)[C@@H](OC)C(=O)[C@H](C)C[C@H](C)/C=C/C=C/C=C(\C)[C@H](O)C[C@@H]3CC[C@@H](C)[C@@](O)(O3)C(=O)C(=O)N3CCCC[C@H]3C(=O)O2)CC[C@H]1O [Compound 17, (16R)-16-O-demethyl rapamycin] | 103
COC1CC2CCC(C)C(O)(O2)C(=O)C(=O)N2CCCCC2C(=O)OC(C(C)CC2CCC(O)C(OC)C2)CC(=O)C(C)C=C(C)C(O)C(OC)C(=O)C(C)CC(C)C=CCCC=C1C (stereo not drawn) | 94.1
CO[C@@H]1/C=C/C=C/[C@@H](C)C[C@@H](C)C(=O)C[C@H](O)/C(C)=C/[C@@H](C)C(=O)C[C@@H]([C@H](C)C[C@@H]2CC[C@@H](O)[C@H](OC)C2)OC(=O)[C@@H]2CCCCN2C(=O)C(=O)[C@]2(O)O[C@@H](CC[C@H]2C)C1 | 101
COC1CC2CCC(C)C(O)(O2)C(=O)C(=O)N2CCCCC2C(=O)OC(C(C)CC2CCC(O)C(OC)C2)CC(O)CC(=O)C(C)C=C(C)C(O)CC(=O)C(C)CC(C)C=CC=CC=C1C (stereo not drawn) | 107
COC1CC2CCC(C)C(O)(O2)C(=O)C(=O)N2CCCCC2C(=O)OC(C(C)CC2CCC(O)C(OC)C2)CC(=O)C(C)C=C(C)C(O)CC(=O)C(C)C=C(C)C=CC=CC=C1C (stereo not drawn) | 96.6
CO[C@H]1C[C@@H]2CC[C@@H](C)[C@@](O)(O2)C(=O)C(=O)N2CCCC[C@H]2C(=O)O[C@H]([C@H](C)C[C@@H]2CC[C@@H](O)[C@H](OC)C2)CC(=O)[C@H](C)/C=C(\C)[C@@H](O)CC[C@H](C)/C=C/C=C/C=C/1C | 96.8
CO[C@H]1C[C@@H]2CC[C@@H](C)[C@@](O)(O2)C(=O)C(=O)N2CCCC[C@H]2C(=O)O[C@H]([C@H](C)C[C@@H]2CC[C@@H](O)[C@H](OC)C2)CC(=O)[C@H](C)/C=C(\C)[C@@H](O)CC(=O)[C@H](C)C[C@H](C)/C=C/C=C(C)/C=C/1C | 101

API: the following record is the query input.
So, COC1CC2CCC(C)C(O)(O2)C(=O)C(=O)N2CCCCC2C(=O)OC(C(C)CC2CCC(O)C(OC)C2)CCC(C)C=C(C)C(O)C(OC)C(=O)C(C)CC(C)C=CC=CC=C1C (stereo not drawn) ? Its viability at 72 h, 9.53674e-05 uM was 102
